- test-system: Estrogen receptor (Homo sapiens)
- protocol-text: qHTS assay to identify small molecule antagonists of the estrogen receptor alpha (ER-alpha) signaling pathway using the BG1 cell line in the presence of 0.1 nM 17-beta-estradiol (AID 1259244); also: nearly all actives have a fitted effect of over 50% in size; also: potency is read from the fitted curve at half-maximal effect
- study-conditions: VM7Luc4E2 (BG1) ERE-luciferase, antagonist mode, 0.1 nM E2, 22 h; series mostly up to 92.4 µM
Results filed as inconclusive are left out. Active and inactive are the calls of the source. Calls follow the shape of the dose curve; as a rule, active = well fitted inhibition curve with a large enough effect in the repeat runs; inconclusive = weak or mixed curves; inactive = no such curve, though single readings can be large or run the other way.
metric-name: Potency

Example cases with answers are listed next.
>>> result("CC(CCc1ccc2c(c1)OCO2)NN (configuration not stated)")
"inactive"
>>> result("OCCSc1ccccc1")
"inactive"
>>> result("O=C(NCCCN1CCOCC1)c1ccc(Cl)cc1")
"inactive"
>>> result("CCCCN(CCCC)C(=S)SSC(=S)N(CCCC)CCCC")
"inactive"

Hi! What's the reported Potency for `CC(C)c1nnc2ccc(-c3ocnc3-c3cc(F)ccc3F)cn12` on Estrogen receptor (Homo sapiens)?
30.6 µM (active)

Next entry: `CCOC(=O)N1CCC(n2c(=O)[nH]c3cc(Cl)ccc32)CC1`
23.7 µM (active)

Entry to check: `N#C[C@@H]1C[C@@H]2C[C@@H]2N1C(=O)[C@@H](N)C12CC3CC(CC(O)(C3)C1)C2`
inactive

Ok, now `Nc1ccc(Cl)cc1[N+](=O)[O-]`
inactive

How about `NC(=O)Nc1ccc(Cl)cc1` ?
inactive

Same question for `NC(=O)N(O)[C@@H]1COc2cc(OCc3ccccc3)ccc21` please.
43.3 µM (active)

Next: `Brc1cc(-c2ccc(Br)c(Br)c2Br)cc(Br)c1Br`
inactive

Subsequent entry: `Cn1c(=O)c2c(ncn2CC(=O)O)n(C)c1=O`
inactive
